Recorded WBC values for a group of compounds are listed next.
species on record: Rattus norvegicus; experiment: Open TG-GATES - Regimen: Daily Repeat; format: toxicity, organism-based, Sprague-Dawley; parameters: regimen Daily Repeat, gender Male, age 6 weeks; settings: in vivo, po, 100 mg/kg, 72 h, tissue Blood, route gavage, dose level Low, time 3 day

compound	unit label	WBC
CCN1CCCC1CNC(=O)c1cc(S(N)(=O)=O)ccc1OC (centres undefined) [SULPIRIDE]	x10_2/uL	95.3
O=C(O)c1cccnc1 [NIACIN]	x10_2/uL	128.4
CC(C)(S)[C@@H](N)C(=O)O [PENICILLAMINE]	x10_2/uL	84.7
O=C(N[C@H](CO)[C@H](O)c1ccc([N+](=O)[O-])cc1)C(Cl)Cl [CHLORAMPHENICOL]	x10_2/uL	102.1

====

species on record: Rattus norvegicus; experiment: Open TG-GATES - Regimen: Daily Repeat; assay type: toxicity, organism-based, Sprague-Dawley; parameters: regimen Daily Repeat, gender Male, age 6 weeks; conditions: in vivo, po, 100 mg/kg, […], tissue Blood, route gavage, dose level Low, time 7 day
Recorded Mono values for a group of compounds are listed next.

compound	unit label	Mono
CCN1CCCC1CNC(=O)c1cc(S(N)(=O)=O)ccc1OC (centres undefined) [SULPIRIDE]	%	2.8
O=C(O)c1cccnc1	%	3
O=C(N[C@H](CO)[C@H](O)c1ccc([N+](=O)[O-])cc1)C(Cl)Cl	%	3
CC(C)(S)[C@@H](N)C(=O)O	%	2.4

====

species: Rattus norvegicus; test: Open TG-GATES - Regimen: Daily Repeat; format: toxicity, organism-based, Sprague-Dawley; set-up: regimen Daily Repeat, gender Male, age 6 weeks; settings: in vivo, po, 0 mg/kg, […], route gavage, dose level Control, time 28 day
Kindly return yes (1) if reported TERMINAL_BW is no lower than 400 g; return no (0) if it is lower.

compound	class name
CCC(C)(C)C(=O)O[C@H]1C[C@@H](C)C=C2C=C[C@H](C)[C@H](CC[C@@H]3C[C@@H](O)CC(=O)O3)[C@H]21	no (0)
CC(C)C(=O)Nc1ccc([N+](=O)[O-])c(C(F)(F)F)c1 [FLUTAMIDE]	no (0)
CCN1CCCC1CNC(=O)c1cc(S(N)(=O)=O)ccc1OC (stereo unspecified) [SULPIRIDE]	no (0)
O=C(N[C@H](CO)[C@H](O)c1ccc([N+](=O)[O-])cc1)C(Cl)Cl	yes (1)
Nc1nc(N)c2nc(-c3ccccc3)c(N)nc2n1	yes (1)
C[C@](N)(Cc1ccc(O)c(O)c1)C(=O)O	no (0)
C#C[C@]1(O)CC[C@H]2[C@@H]3CCc4cc(O)ccc4[C@H]3CC[C@@]21C	yes (1)
CC(=N)S [THIOACETAMIDE]	no (0)
CN1C(=O)OC(C)(C)C1=O	yes (1)

====

Recorded TP values for a group of compounds are listed next.
organism: Rattus norvegicus; assay: Open TG-GATES - Regimen: Daily Repeat; assay type: toxicity, organism-based, Sprague-Dawley; parameters: regimen Daily Repeat, gender Male, age 6 weeks; settings: in vivo, po, 0 mg/kg, […], tissue Plasma, route gavage, dose level Control, time 14 day
assay readout: TP (g/dL)

compound	readout number
CCN1CCCC1CNC(=O)c1cc(S(N)(=O)=O)ccc1OC (stereo not given) [SULPIRIDE]	5.8
CCSCC[C@H](N)C(=O)O	5.8
CC(C)C(=O)Nc1ccc([N+](=O)[O-])c(C(F)(F)F)c1 [FLUTAMIDE]	5.8
C[C@](N)(Cc1ccc(O)c(O)c1)C(=O)O	6
CCC(C)(C)C(=O)O[C@H]1C[C@@H](C)C=C2C=C[C@H](C)[C@H](CC[C@@H]3C[C@@H](O)CC(=O)O3)[C@H]21	5.9
CC(=O)Oc1cc(C(C)C)c(OCCN(C)C)cc1C	5.7
Oc1ncnc2[nH]ncc12	6
CCc1oc2ccccc2c1C(=O)c1cc(I)c(O)c(I)c1	6
O=C(N[C@H](CO)[C@H](O)c1ccc([N+](=O)[O-])cc1)C(Cl)Cl	6
Nc1nc(N)c2nc(-c3ccccc3)c(N)nc2n1	5.9
